Molecular target: JAK2 kinase activity on STAT5 in TF1 cells (Homo sapiens, UniProt O60674)
Sequence (O60674 whole entry): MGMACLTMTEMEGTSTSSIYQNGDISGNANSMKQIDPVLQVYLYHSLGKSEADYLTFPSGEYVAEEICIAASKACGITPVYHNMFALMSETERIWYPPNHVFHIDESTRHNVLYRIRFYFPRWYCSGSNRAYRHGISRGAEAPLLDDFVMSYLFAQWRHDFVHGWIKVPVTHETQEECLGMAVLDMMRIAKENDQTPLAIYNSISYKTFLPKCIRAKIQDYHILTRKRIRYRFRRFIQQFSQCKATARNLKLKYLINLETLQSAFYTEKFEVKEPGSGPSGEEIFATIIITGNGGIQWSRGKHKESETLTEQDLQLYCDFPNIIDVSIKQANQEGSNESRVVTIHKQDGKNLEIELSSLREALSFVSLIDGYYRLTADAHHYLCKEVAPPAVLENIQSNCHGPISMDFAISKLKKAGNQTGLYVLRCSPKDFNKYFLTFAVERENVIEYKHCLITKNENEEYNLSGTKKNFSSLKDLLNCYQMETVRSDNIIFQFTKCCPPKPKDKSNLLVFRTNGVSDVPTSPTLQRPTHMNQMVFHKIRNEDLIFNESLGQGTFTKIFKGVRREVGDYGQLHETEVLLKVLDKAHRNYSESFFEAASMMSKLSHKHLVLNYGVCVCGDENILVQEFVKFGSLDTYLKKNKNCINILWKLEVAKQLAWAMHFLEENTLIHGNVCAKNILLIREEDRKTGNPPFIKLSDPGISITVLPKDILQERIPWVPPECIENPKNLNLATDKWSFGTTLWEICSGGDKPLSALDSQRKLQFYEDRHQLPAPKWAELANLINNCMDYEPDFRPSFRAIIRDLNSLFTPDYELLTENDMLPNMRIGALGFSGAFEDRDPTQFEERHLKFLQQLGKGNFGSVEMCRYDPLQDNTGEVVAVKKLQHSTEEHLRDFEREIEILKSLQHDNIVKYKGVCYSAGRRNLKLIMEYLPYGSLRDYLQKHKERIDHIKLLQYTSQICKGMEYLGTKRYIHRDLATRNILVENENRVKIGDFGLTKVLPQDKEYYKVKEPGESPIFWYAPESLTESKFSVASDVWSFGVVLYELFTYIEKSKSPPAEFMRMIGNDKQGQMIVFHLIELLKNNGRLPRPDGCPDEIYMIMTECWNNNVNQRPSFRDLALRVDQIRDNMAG
Test: pSTAT5 cell assay (MSD; TF1 cells, 30 ng/mL IL-3 stimulation)
Conditions: 30 ng/mL IL-3, 15 minutes
Structures can show the parent of a compound that is named as a salt.
measure: IC50

Problem: Recorded IC50 for `C[C@@H]1CN(c2nn(-c3cnn(C)c3)c3cnccc23)C(=O)[C@]1(C#N)C1CC1` , please?
Solution: > 10 µM

Problem: Recorded IC50 for `CNC(=O)c1ccc(-c2cc3c(N4C[C@@H](C)[C@@](C#N)(C5CC5)C4=O)ccnn3c2)cn1` , please?
Solution: > 10 µM

Problem: Recorded IC50 for `CC(C)n1cc(-c2cc3nccc(N4C[C@@H](C)[C@@](C#N)(C5CC5)C4=O)c3o2)cn1` , please?
Solution: 1 to 5 µM

Problem: Recorded IC50 for `C[C@@H]1CN(c2nc(-c3cnn(C4CC4)c3)cc3ncsc23)C(=O)[C@]1(C#N)C1CC1` , please?
Solution: < 0.1 µM

Problem: Recorded IC50 for `C[C@@H]1CN(c2ccnn3cc(-c4cncc(O)c4)cc23)C(=O)[C@]1(C#N)C1CC1` , please?
Solution: > 10 µM

Problem: Recorded IC50 for Cc1ccc(-c2cn3nccc3c(N3C[C@@H](C)[C@@](C#N)(C4CC4)C3=O)n2)cn1 [Example 233, trifluoroacetate] , please?
Solution: 1 to 5 µM

Problem: Recorded IC50 for `COc1cc(-c2cc3c(N4CC[C@@](C#N)(C5CC5)C4=O)ccnn3c2)ccn1` , please?
Solution: 1 to 5 µM

Problem: Recorded IC50 for C[C@@H]1CN(c2nc(-c3ccc(S(C)(=O)=O)nc3)cn3nccc23)C(=O)[C@]1(C#N)C1CC1 [Example 257, trifluoroacetate] , please?
Solution: 5 to 10 µM

Problem: Recorded IC50 for `C[C@@H]1CN(c2ccnn3cc(-c4cccc5c4cnn5C)cc23)C(=O)[C@]1(C#N)C1CC1` , please?
Solution: > 10 µM

Problem: Recorded IC50 for C[C@@H]1CN(c2ccnn3cc(-c4cnn(C5CCN(C)C5)c4)cc23)C(=O)[C@]1(C#N)C1CC1 (stereo partly drawn) , please?
Solution: 1 to 5 µM

Problem: Recorded IC50 for `Cc1cnn(-c2cc3c(N4C[C@@H](C)[C@@](C#N)(C5CC5)C4=O)ccnn3c2)c1` , please?
Solution: > 10 µM

Problem: Recorded IC50 for C[C@@H]1CN(c2nc(-c3cnc(N(C)C)nc3)cn3nccc23)C(=O)[C@]1(C#N)C1CC1 [Example 264, trifluoroacetate] , please?
Solution: > 10 µM

Problem: Recorded IC50 for `CCn1cc(-c2cn3nccc3c(N3C[C@@H](C)[C@@](C#N)(C4CC4)C3=O)n2)cn1` , please?
Solution: 0.1 to 1 µM

Problem: Recorded IC50 for `C[C@@H]1CN(c2ccnn3cc(-c4ccc(C(F)(F)F)nc4)cc23)C(=O)[C@]1(C#N)C1CC1` , please?
Solution: > 10 µM

Problem: Recorded IC50 for `C[C@@H]1CN(c2ccnn3cc(-c4cnn(C)c4)nc23)C(=O)[C@]1(C#N)C1CC1` , please?
Solution: > 10 µM

----------
Target: Tyk2 kinase activity on STAT4 in NK92 cells (Homo sapiens, UniProt P29597)
Sequence (P29597 whole entry): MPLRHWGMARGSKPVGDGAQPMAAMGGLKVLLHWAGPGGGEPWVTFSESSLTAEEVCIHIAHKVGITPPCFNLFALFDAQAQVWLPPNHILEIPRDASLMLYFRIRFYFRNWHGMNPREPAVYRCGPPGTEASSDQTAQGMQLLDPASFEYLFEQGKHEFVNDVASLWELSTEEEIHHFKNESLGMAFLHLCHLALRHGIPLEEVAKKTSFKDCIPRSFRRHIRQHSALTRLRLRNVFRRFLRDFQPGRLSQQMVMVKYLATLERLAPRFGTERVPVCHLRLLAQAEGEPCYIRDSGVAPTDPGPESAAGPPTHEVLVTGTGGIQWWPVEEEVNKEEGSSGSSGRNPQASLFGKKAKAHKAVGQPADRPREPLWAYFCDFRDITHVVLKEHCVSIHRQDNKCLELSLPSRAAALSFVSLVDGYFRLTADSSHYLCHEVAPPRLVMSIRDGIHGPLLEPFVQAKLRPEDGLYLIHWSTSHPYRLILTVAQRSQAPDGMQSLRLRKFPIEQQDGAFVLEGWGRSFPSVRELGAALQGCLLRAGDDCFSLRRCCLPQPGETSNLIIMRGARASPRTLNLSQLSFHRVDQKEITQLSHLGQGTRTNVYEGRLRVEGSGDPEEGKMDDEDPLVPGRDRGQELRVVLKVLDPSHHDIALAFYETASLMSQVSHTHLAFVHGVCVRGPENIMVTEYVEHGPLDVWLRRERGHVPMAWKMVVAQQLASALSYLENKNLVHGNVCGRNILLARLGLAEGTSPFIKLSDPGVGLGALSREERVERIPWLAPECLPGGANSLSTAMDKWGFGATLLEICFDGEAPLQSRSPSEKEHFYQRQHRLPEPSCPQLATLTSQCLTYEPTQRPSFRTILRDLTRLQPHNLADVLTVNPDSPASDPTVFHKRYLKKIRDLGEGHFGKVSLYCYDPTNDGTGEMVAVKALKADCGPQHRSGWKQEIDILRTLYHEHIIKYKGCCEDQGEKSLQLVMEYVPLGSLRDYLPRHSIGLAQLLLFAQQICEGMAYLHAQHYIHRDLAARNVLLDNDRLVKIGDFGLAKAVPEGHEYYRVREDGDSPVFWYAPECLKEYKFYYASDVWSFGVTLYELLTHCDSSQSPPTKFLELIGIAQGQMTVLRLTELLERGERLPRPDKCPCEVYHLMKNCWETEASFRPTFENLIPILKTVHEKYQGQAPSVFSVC
Assay: pSTAT4 cell assay (MSD; NK92 cells, 30 ng/mL IL2 stimulation)
Settings: 30 ng/mL IL2, 15 minutes
Procedure: The inhibitory potency of compounds of the disclosure against the Tyk2 kinase activity on STAT4 was evaluated using an MSD-platform plate-based assay format. NK92 cells natively expressing STAT4 and Tyk2 were serum-starved to reduce background phosphorylation levels, then cells were treated compounds for 1 hr with a 10-point four-fold dilution series starting at 10 μM. […] Cells were lysed and pSTAT5 levels were quantitated using an MSD plate-based assay with anti-STAT4 antibodies. […]
pIC50: −log10 of the molar value. Structures can show the parent of a compound that is named as a salt.
measure: pIC50

Problem: Recorded pIC50 for C[C@@H]1CN(c2ccnn3cc(-c4ccc(C(F)(F)F)nc4)cc23)C(=O)[C@]1(C#N)C1CC1 [Example 74] , please?
Solution: < 7.00

Problem: Recorded pIC50 for COc1cncc(-c2cn3nccc3c(N3C[C@@H](C)[C@@](C#N)(C4CC4)C3=O)n2)c1 [Example 244, trifluoroacetate] , please?
Solution: < 7.00

Problem: Recorded pIC50 for COc1ncccc1-c1cc2c(N3C[C@@H](C)[C@@](C#N)(C4CC4)C3=O)ccnn2c1 [Example 96] , please?
Solution: < 7.00

Problem: Recorded pIC50 for C[C@@H]1CN(c2ccnn3cc(-c4cn[nH]c4)cc23)C(=O)[C@]1(C#N)C1CC1 [Example 59, trifluoroacetate] , please?
Solution: 7.00 to 7.30

Problem: Recorded pIC50 for CCc1ccc(-c2cc3c(N4C[C@@H](C)[C@@](C#N)(C5CC5)C4=O)ccnn3c2)cn1 [Example 174, trifluoroacetate] , please?
Solution: 7.00 to 7.30

Problem: Recorded pIC50 for C[C@@H]1CN(c2ccnn3cc(-c4cccc5cncn45)cc23)C(=O)[C@]1(C#N)C1CC1 [Example 128, trifluoroacetate] , please?
Solution: < 7.00

Problem: Recorded pIC50 for C[C@@H]1CN(c2ccnn3cc(-c4cnn([C@H]5C[C@@H](C#N)C5)c4)cc23)C(=O)[C@]1(C#N)C1CC1 [Example 329] , please?
Solution: 7.30 to 7.70

Problem: Recorded pIC50 for Cn1cc(-c2cc3c(N4CC[C@@](C#N)(C5CC5)C4=O)ccnn3c2)cn1 [Example 9] , please?
Solution: < 7.00

Problem: Recorded pIC50 for C[C@@H]1CN(c2nc(-c3cccnc3)cn3nccc23)C(=O)[C@]1(C#N)C1CC1 [Example 194] , please?
Solution: < 7.00

Problem: Recorded pIC50 for C[C@@H]1CN(c2ccnn3cc(-c4ccn(C)c(=O)c4)cc23)C(=O)[C@]1(C#N)C1CC1 [Example 79] , please?
Solution: < 7.00

Problem: Recorded pIC50 for C[C@@H]1CN(c2nc(-c3cnn(CC4(C#N)CC4)c3)cn3ncc(F)c23)C(=O)[C@]1(C#N)C1CC1 [Example 302] , please?
Solution: 7.00 to 7.30

Problem: Recorded pIC50 for C[C@@H]1CN(c2ccnn3cc(-c4cnn(C5CC5(F)F)c4)cc23)C(=O)[C@]1(C#N)C1CC1 (mixture of isomers) [Example 154] , please?
Solution: 7.70 to 8.30

Problem: Recorded pIC50 for C[C@@H]1CN(c2nc(-c3cncc(O)c3)cn3nccc23)C(=O)[C@]1(C#N)C1CC1 [Example 258, trifluoroacetate] , please?
Solution: < 7.00

Problem: Recorded pIC50 for [2H]C([2H])([2H])n1cc(-c2cn3ncc(F)c3c(N3C[C@@H](C)[C@@](C#N)(C4CC4)C3=O)n2)cn1 [Example 211] , please?
Solution: 7.00 to 7.30
